From: patent US4665169A

testDetails: Blood levels in mice after intramuscular dosing
Type: in vivo
studyConditions: mouse, im, 20 mg/kg, 90 min after 20 mg/kg i.m., with BCH-1 10 mg/kg i.p.

compound	concentration at 1.5 h, ng/mL
C[C@@H](O)[C@H]1C(=O)N2C(C(=O)[O-])=C(SC3CC[S+](C)CC3)C[C@H]12 (stereo partly shown) [Example 1]	300

---

testDetails: Blood levels in mice after intramuscular dosing
Format: in vivo
studyConditions: mouse, im, 20 mg/kg, 20 mg/kg i.m., with BCH-1 10 mg/kg i.p.

compound	unitAbbreviation	half-life
C[C@@H](O)[C@H]1C(=O)N2C(C(=O)[O-])=C(SC3CC[S+](C)CC3)C[C@H]12 (stereo partly shown)	min	10
